Tested on: CP335
experimentNotes: qHTS profiling for inhibitors of Plasmodium falciparum proliferation (AID 504749); further: nearly all actives have a fitted effect of over 60% in size
runConditions: P. falciparum in erythrocytes, SYBR Green DNA, 72 h; series mostly up to 12.8 µM
Records with an inconclusive call do not appear. Activity calls are given as the source filed them. The call rests on the fitted dose curve; in most records, active means well fitted inhibition curve with a large enough effect; inconclusive means small, poorly fitted or top-dose-only effect; inactive means flat fitted curve, though single readings scatter.
Give one outcome, nothing more. List: active, inactive

Example entries begin here.
COc1cc(C2c3cc4c(cc3C(O[C@@H]3OC5COC(c6cccs6)OC5C(O)C3O)C3COC(=O)C23)OCO4)cc(OC)c1O (some centres not stated)    active
CCC(=O)O[C@@]1(C(=O)CCl)C(C)CC2C3CCC4=CC(=O)C=C[C@@]4(C)[C@]3(F)C(O)C[C@]21C (some centres not stated)    active
O=C1OC(CO)C(O)C(O)C1O (configuration not stated)    inactive
C[C@H](N[C@@H](C)COc1ccccc1)[C@H](O)c1ccc(O)cc1    inactive
CCC(C)C(=O)OC1CCC=C2C=CC(C)C(CCC3CC(O)CC(=O)O3)[C@@H]21 (some centres not stated)    inactive

**Q:** Hi, do you know how C[C@@]12CC[C@H]3[C@@H](CCC4=CC(=O)CC[C@]43C)[C@H]1CC[C@H]2C(=O)CO came out in this test?
**A:** inactive

**Q:** Hi, do you know how CCN[C@@H]1CN(CCCOC)S(=O)(=O)c2sc(S(N)(=O)=O)cc21 came out in this test?
**A:** inactive

* * *

tgt: Rap guanine nucleotide exchange factor 3 (Homo sapiens) (UniProt O95398)
Sequence (O95398 whole entry, looked up): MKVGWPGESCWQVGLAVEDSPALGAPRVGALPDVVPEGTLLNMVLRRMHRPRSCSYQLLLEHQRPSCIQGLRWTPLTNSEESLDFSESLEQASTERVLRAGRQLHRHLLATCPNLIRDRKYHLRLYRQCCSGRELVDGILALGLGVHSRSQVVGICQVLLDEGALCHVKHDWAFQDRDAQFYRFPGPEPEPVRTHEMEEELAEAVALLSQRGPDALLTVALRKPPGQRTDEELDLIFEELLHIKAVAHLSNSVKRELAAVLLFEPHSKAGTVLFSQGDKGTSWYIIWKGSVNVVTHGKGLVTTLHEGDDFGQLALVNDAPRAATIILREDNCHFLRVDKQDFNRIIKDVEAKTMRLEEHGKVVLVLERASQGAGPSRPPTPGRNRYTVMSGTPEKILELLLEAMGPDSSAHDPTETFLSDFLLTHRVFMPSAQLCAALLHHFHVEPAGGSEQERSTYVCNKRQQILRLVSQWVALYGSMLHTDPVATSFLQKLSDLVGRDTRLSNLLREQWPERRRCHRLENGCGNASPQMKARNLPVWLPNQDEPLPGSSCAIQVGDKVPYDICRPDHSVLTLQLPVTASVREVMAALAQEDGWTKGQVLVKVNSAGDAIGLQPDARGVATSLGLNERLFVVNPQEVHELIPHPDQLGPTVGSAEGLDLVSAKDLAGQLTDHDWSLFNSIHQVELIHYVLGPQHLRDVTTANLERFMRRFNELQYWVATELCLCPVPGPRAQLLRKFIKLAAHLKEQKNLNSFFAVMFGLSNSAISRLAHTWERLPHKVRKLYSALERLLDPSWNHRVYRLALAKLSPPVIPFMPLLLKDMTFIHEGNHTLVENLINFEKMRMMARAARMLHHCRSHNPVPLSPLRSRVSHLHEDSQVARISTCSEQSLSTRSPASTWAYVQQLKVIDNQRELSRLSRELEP
experimentNotes: Counterscreen qHTS for antagonist of cAMP-regulated guanine nucleotide exchange factor 3 (EPAC1) (AID 1645888);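 further: fluorescence loss as bound BODIPY-GDP is released from Rap1B; % of control where 0% means no effect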
runConditions: Rap1B-BODIPY-GDP nucleotide exchange, fluorescence; series mostly up to 154 µM
Excerpt: Assay Provider (PI): Xiaodong Cheng Ph.D. The University of Texas Medical Branch, […], TX MLPCN Grant: NS066510 In multi-cellular eukaryotic organisms, the effects of cAMP are transduced by two ubiquitously-expressed intracellular cAMP receptors, the classic protein kinase A/cAMP-dependent protein kinase (PKA/cAPK) and the more recently discovered exchange protein directly activated by cAMP/cAMP-regulated guanine nucleotide exchange factor (EPAC/cAMP-GEF). […]
Inconclusive results are not listed. Active and inactive are the calls of the source. Calls follow the shape of the dose curve; as a rule, active = well fitted inhibition curve with a large enough effect; inconclusive = small, poorly fitted or top-dose-only effect; inactive = no such curve, though single readings can be large or run the other way.
endpointLabel: activity change, negative = inhibition

Cc1c(C(=O)NCc2ccc(F)cc2)sc(=O)n1Cc1ccccc1F    inactive
COc1ccc(C2NC(=O)N(C)C3=C2C(=O)N(c2cccc(Cl)c2)C3)cc1 (configuration not stated)    inactive
CC(=O)Nc1ccc(S(=O)(=O)NCCC(=O)Nc2cc(C)ccn2)cc1    inactive
Cc1c(NC(=O)/C=C/c2cn(-c3ccccc3)nc2-c2ccccc2)c(=O)n(-c2ccccc2)n1C    -4.59% [at 30.8 µM] (inactive)
CN(Cc1ccccc1)S(=O)(=O)c1ccc(Cl)c(C(=O)NCc2ccncc2)c1    inactive

Now look at this one.
**Q:** Give the measured activity change, negative = inhibition of CC(Oc1ccc(-c2nnco2)cc1)C(=O)N1CCOCC1 (configuration not stated) .
**A:** inactive

* * *

Entries and their activity change, negative = inhibition
experimentNotes: qHTS Assay for Lipid Storage Modulators (AID 1519); further: on the % scale 0 is the no-effect control and ±100 the full control effect
runConditions: Drosophila S3 cells, BODIPY lipid droplet/cell ratio, laser cytometry; at 57.5 µM (top of the series); cells loaded with oleic acid
Inconclusive results are not listed.
Give the value in % but do not write % after it.

Recorded activity change, negative = inhibition, per entry:
COc1ccc(C(=O)/C=C/c2ccccc2)cc1    8.41
O=c1[nH]c(=O)n([C@@H]2O[C@H](CO)[C@@H](O)[C@H]2O)cc1F    -3.28
COC1C(O)C(O)C(O)C(O)C1O (stereo unspecified)    5.15
CCCCCC1C(=O)CCC1CC(=O)OC (stereo unspecified)    7.58
COC(=O)[C@H]1C(OC)[C@@H](OC(=O)c2cc(OC)c(OC)c(OC)c2)C[C@@H]2CN3CCc4c([nH]c5cc(OC)ccc45)[C@H]3C[C@H]21 (stereo partly specified)    8.9

**Q:** Give the measured activity change, negative = inhibition of C=C1C[C@@]23C[C@@]1(O)CCC2[C@@]12C=CC(O)[C@](C)(C(=O)O1)C2C3C(=O)O (stereo partly specified) .
**A:** 1.95
